Hey, just so you know, these numbers are from the supplement of paper PMC10307832.

// reported relative viability for each item listed
- Tested on: HCC-827
- test method notes: relative viability (nuclei count vs DMSO), 5 days (fraction); higher = more cells survive
- assay setup: first compound 20 µM
Keep it simple and answer with nothing but the number.

[
  {
    "compound": "Cc1csc(=NC2CCCCC2)n1/N=C/c1ccc(O)c(O)c1O [MIM1] + COc1cccc2cc(-c3nc([C@H]4CC[C@H](C(=O)O)CC4)n4ncnc(N)c34)[nH]c12 [OSI-027] (partner 0.5 µM)",
    "relative viability": 0.187
  },
  {
    "compound": "Cc1csc(=NC2CCCCC2)n1/N=C/c1ccc(O)c(O)c1O [MIM1] + NC(=O)Nc1cc(-c2cccc(F)c2)sc1C(=O)N[C@H]1CCCNC1 [AZD7762] (partner 0.2 µM)",
    "relative viability": 0.304
  },
  {
    "compound": "Cc1csc(=NC2CCCCC2)n1/N=C/c1ccc(O)c(O)c1O [MIM1] + Nc1nc2[nH]cc(CCc3ccc(C(=O)N[C@@H](CCC(=O)O)C(=O)O)cc3)c2c(=O)[nH]1 [Pemetrexed] (partner 0.2 µM)",
    "relative viability": 0.167
  },
  {
    "compound": "Cc1csc(=NC2CCCCC2)n1/N=C/c1ccc(O)c(O)c1O [MIM1] + CS(=O)(=O)N1CCN(Cc2cc3nc(-c4cccc5[nH]ncc45)nc(N4CCOCC4)c3s2)CC1 [Pictilisib] (partner 1 µM)",
    "relative viability": 0.664
  }
]

Please report relative viability for the following compound: Cc1csc(=NC2CCCCC2)n1/N=C/c1ccc(O)c(O)c1O [MIM1] + CS(=O)(=O)CCNCc1ccc(-c2ccc3ncnc(Nc4ccc(OCc5cccc(F)c5)c(Cl)c4)c3c2)o1 [Lapatinib] (partner 2 µM)
0.248

---

// reported relative viability for each item listed
- Test system: NCI-H2023
- test method notes: relative viability (nuclei count vs DMSO), 5 days (fraction); higher = more cells survive
- assay setup: first compound 0.8 µM
Keep it simple and answer with nothing but the number.

[
  {
    "compound": "Nc1cccc2c1CN(C1CCC(=O)NC1=O)C2=O (stereo not drawn) [Lenalidomide] + CC(C)C[C@H](NC(=O)[C@H](Cc1ccccc1)NC(=O)c1cnccn1)B(O)O [Bortezomib] (partner 0.002 µM)",
    "target system": "NCI-H2023",
    "test readout": "relative viability",
    "test result": 1.08
  },
  {
    "compound": "Nc1cccc2c1CN(C1CCC(=O)NC1=O)C2=O (stereo not drawn) [Lenalidomide] + C[C@@H](Oc1cc(-c2cnn(C3CCNCC3)c2)cnc1N)c1c(Cl)ccc(F)c1Cl [Crizotinib] (partner 1 µM)",
    "target system": "NCI-H2023",
    "test readout": "relative viability",
    "test result": 0.785
  }
]

// moving on: another record for relative viability
Please report relative viability for the following compound: Nc1cccc2c1CN(C1CCC(=O)NC1=O)C2=O (stereo not drawn) [Lenalidomide] + Nc1nc2[nH]cc(CCc3ccc(C(=O)N[C@@H](CCC(=O)O)C(=O)O)cc3)c2c(=O)[nH]1 [Pemetrexed] (partner 0.2 µM)
0.235

---

- System: NCI-H322M
- test method notes: relative viability (nuclei count vs DMSO), 5 days (fraction); higher = more cells survive
- assay setup: first compound 20 µM
// NB: equality with 0.4 counts as Condition not met; only relative viability strictly below is Condition met

// below: answered molecules
[
  {
    "molecule": "Cc1csc(=NC2CCCCC2)n1/N=C/c1ccc(O)c(O)c1O [MIM1] + Cc1nc(NC(=O)N2CCC[C@H]2C(N)=O)sc1-c1ccnc(C(C)(C)C(F)(F)F)c1 [Alpelisib] (partner 2 µM)",
    "target system": "NCI-H322M",
    "label value": "Condition not met"
  },
  {
    "molecule": "Cc1csc(=NC2CCCCC2)n1/N=C/c1ccc(O)c(O)c1O [MIM1] + Nc1nc2[nH]cc(CCc3ccc(C(=O)N[C@@H](CCC(=O)O)C(=O)O)cc3)c2c(=O)[nH]1 [Pemetrexed] (partner 0.2 µM)",
    "target system": "NCI-H322M",
    "label value": "Condition not met"
  },
  {
    "molecule": "Cc1csc(=NC2CCCCC2)n1/N=C/c1ccc(O)c(O)c1O [MIM1] + COc1cccc2cc(-c3nc([C@H]4CC[C@H](C(=O)O)CC4)n4ncnc(N)c34)[nH]c12 [OSI-027] (partner 0.5 µM)",
    "target system": "NCI-H322M",
    "label value": "Condition met"
  },
  {
    "molecule": "Cc1csc(=NC2CCCCC2)n1/N=C/c1ccc(O)c(O)c1O [MIM1] + CC(=O)Nc1cccc(-n2c(=O)n(C3CC3)c(=O)c3c(Nc4ccc(I)cc4F)n(C)c(=O)c(C)c32)c1 [Trametinib] (partner 0.02 µM)",
    "target system": "NCI-H322M",
    "label value": "Condition not met"
  },
  {
    "molecule": "Cc1csc(=NC2CCCCC2)n1/N=C/c1ccc(O)c(O)c1O [MIM1] + Cc1nc(Nc2ncc(C(=O)Nc3c(C)cccc3Cl)s2)cc(N2CCN(CCO)CC2)n1 [Dasatinib] (partner 0.075 µM)",
    "target system": "NCI-H322M",
    "label value": "Condition met"
  }
]

Now consider a different molecule.
State whether 0.4 exceeds relative viability recorded for Cc1csc(=NC2CCCCC2)n1/N=C/c1ccc(O)c(O)c1O [MIM1] + N=C(N)NC(=N)NCCc1ccccc1 [Phenformin] (partner 250 µM) .
Condition met
